Biological target: T1, BST2 peptide on HLA-A*02:01 (human)
T1 peptide: LLLGIGILVL
Experiment: multimer staining
quantity.measured: binding result

Lookup: Reported binding result, binder MEL25 (TCR) alpha TRAV8-6 TRAJ47 CDR3: CAVSDNGNKLVF beta TRBV12-4 TRBJ2-7 CDR3: CASSWAGPVEQYF : ____
Found: recognises

Lookup: Reported binding result, binder MEL11 (TCR) alpha TRAV12-2*01 TRAJ30 CDR3: CAVNYEDDKIIF beta TRBV9 TRBJ2-7 CDR3: CASSVGVQGSWEQYF : ____
Found: recognises

Lookup: Reported binding result, binder MEL8 (TCR, V domains shown) Valpha: QKEVEQNSGPLSVPEGAIASLNCTYSDRGSQSFFWYRQYSGKSPELIMSIYSNGDKEDGRFTAQLNKASQYVSLLIRDSQPSDSATYLCAVQKLVFGTGTRLLVSP Vbeta: NAGVTQTPKFQVLKTGQSMTLQCAQDMNHEYMSWYRQDPGMGLRLIHYSVGAGITDQGEVPNGYNVSRSTTEDFPLRLLSAAPSQTSVYFCASSYSFTEATYEQYFGPGTRLTVT : ____
Found: recognises
